# experimental_system: Chinese variant CD1a protein (human) (UniProt P06126)
# Sequence (P06126 18-295, change not shown): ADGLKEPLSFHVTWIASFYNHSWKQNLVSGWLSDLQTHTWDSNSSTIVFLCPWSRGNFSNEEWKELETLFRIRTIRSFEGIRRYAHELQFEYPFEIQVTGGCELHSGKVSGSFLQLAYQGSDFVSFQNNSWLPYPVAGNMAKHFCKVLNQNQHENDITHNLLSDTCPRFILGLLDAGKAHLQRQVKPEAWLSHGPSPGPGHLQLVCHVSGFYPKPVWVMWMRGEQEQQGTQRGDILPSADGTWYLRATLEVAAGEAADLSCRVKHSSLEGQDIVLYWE
# test_method_notes: ELISA, 10 µg/ml antibody

{"binder": "16 (VR11834) (antibody, V domains shown, also called OX16; antibody 16) VH: EVQLVESGGGLVKPGGSLKLSCAASGFTFSNYAMSWVRQTPEKRLEWVAAINSNGGSAYYPDTVKDRFTISRDNAKNTLYLQMSSLRSEDTALYYCARRFYYDYGWFAYWGQGTLVTVSS VL: DIVLTQSPASLSASVGETVTITCRASENIDSYLAWYQQKQGKSPQLLVYAATLLADGVPSRFSGSGSGTQYSLKINSLQSEDVARYYCQHYYSSPWTFGGGTKLEIK", "Optical Density (OD)": 1.44}
